test system: up to 32 different microorganisms; assay: in vitro antibacterial activity (MIC), agar dilution on Brain Heart Infusion (BHI) agar with Steers replicator; type: cell-based; details: organism code II; unit assumed
Recorded MIC, one value per entry.
Measurement Label: MIC (µg/mL)

Compound: CC[C@H]1OC(=O)[C@H](C)C(=O)[C@H](C)[C@@H](O[C@@H]2O[C@H](C)C[C@H](N(C)C)[C@H]2O)[C@@](C)(OCCNCCc2ccccc2)C[C@@H](C)C(=O)[C@H](C)[C@H]2NC(=O)O[C@@]21C [Example 222]
Display Unit: µg/mL
Measured: 0.02
//
Compound: CCC1OC(=O)C(C)C(=O)C(C)C(OC2OC(C)CC(N(C)C)C2O)C(C)(OCC=Cc2cccc3c([N+](=O)[O-])cccc23)CC(C)C(=O)C(C)C2NC(=O)OC12C (centres unmarked) [Example 281]
Display Unit: µg/mL
Measured: 0.39
//
Compound: CCC1OC(=O)C(C)C(=O)C(C)C(OC2OC(C)CC(N(C)C)C2O)C(C)(OCC=Cc2cn(C)c(=O)n(C)c2=O)CC(C)C(=O)C(C)C2NC(=O)OC12C (centres unmarked) [Example 293]
Display Unit: µg/mL
Measured: 0.1
//
Compound: CCC1OC(=O)C(C)C(=O)C(C)C(OC2OC(C)CC(N(C)C)C2O)C(C)(OCC=Cc2ccc3cccnc3c2)CC(C)C(=O)C(C)C2NC(=O)OC12C (centres unmarked) [Example 278]
Display Unit: µg/mL
Measured: 0.05
//
Compound: CCC1OC(=O)C(C)C(=O)C(C)C(OC2OC(C)CC(N(C)C)C2O)C(C)(OCC=Cc2cnc3ccc(C(=O)OC)cc3c2)CC(C)C(=O)C(C)C2NC(=O)OC12C (centres unmarked) [Example 216]
Display Unit: µg/mL
Measured: 0.05

====

tested on: up to 32 different microorganisms; experiment: in vitro antibacterial activity (MIC), agar dilution on Brain Heart Infusion (BHI) agar with Steers replicator; type: cell-based; settings: Streptococcus Pneumonia ATCC6303 (code XX); unit assumed
Measured MIC, listed per entry.
Measurement Label: MIC (µg/mL)

Compound: CCC1OC(=O)C(C)C(=O)C(C)C(OC2OC(C)CC(N(C)C)C2O)C(C)(OCC=Cc2cnc3ccc(Cl)cc3c2)CC(C)C(=O)C(C)C2NC(=O)OC12C (centres unmarked)
Display Unit: µg/mL
Measured: 0.03
--
Compound: C=CCO[C@@]1(C)C[C@@H](C)C(=O)[C@H](C)[C@H]2NC(=O)O[C@]2(C)[C@@H](CC)OC(=O)[C@H](C)C(=O)[C@H](C)[C@H]1O[C@@H]1O[C@H](C)C[C@H](N(C)C)[C@H]1O
Display Unit: µg/mL
Measured: 0.5

====

test system: up to 32 different microorganisms; assay: in vitro antibacterial activity (MIC), agar dilution on Brain Heart Infusion (BHI) agar with Steers replicator; type: cell-based; conditions: Streptococcus bovis A-5169 (code JJ); unit assumed
Let's look at some compounds and their measured MIC.

Compound: CCC1OC(=O)C(C)C(=O)C(C)C(OC2OC(C)CC(N(C)C)C2O)C(C)(OCC=Cc2ccc3c(c2)OCO3)CC(C)C(=O)C(C)C2NC(=O)OC12C (stereo not drawn) [Example 188]
MIC: ≤ 0.005 µg/mL
--
Compound: CC[C@H]1OC(=O)[C@H](C)C(=O)[C@H](C)[C@@H](O[C@@H]2O[C@H](C)C[C@H](N(C)C)[C@H]2O)[C@@](C)(OCC=Cc2cnc3ccccc3c2)C[C@@H](C)C(=O)[C@H](C)[C@H]2NC(=O)O[C@@]21C [Example 104]
MIC: 0.01 µg/mL
--
Compound: CC[C@H]1OC(=O)[C@H](C)C(=O)[C@H](C)[C@@H](O[C@@H]2O[C@H](C)C[C@H](N(C)C)[C@H]2O)[C@@](C)(OCC=Cc2ccccc2)C[C@@H](C)C(=O)[C@H](C)[C@@H](O)[C@]1(C)O [Example 14]
MIC: 0.2 µg/mL

====

test system: up to 32 different microorganisms; assay: in vitro antibacterial activity (MIC), agar dilution on Brain Heart Infusion (BHI) agar with Steers replicator; format: cell-based; conditions: Staphylococcus aureus CMX 642A (code DD); unit assumed

Molecule: CC[C@H]1OC(=O)[C@H](C)C(=O)[C@H](C)[C@@H](O[C@@H]2O[C@H](C)C[C@H](N(C)C)[C@H]2O)[C@@](C)(OCCNCc2ccncc2)C[C@@H](C)C(=O)[C@H](C)[C@@H](O)[C@]1(C)O
Display Unit: µg/mL
MIC: 6.2
//
Molecule: C=CCOC1(C)CC(C)C(=NO)C(C)C(O)C(C)(O)C(CC)OC(=O)C(C)C(=O)C(C)C1OC1OC(C)CC(N(C)C)C1O (stereo not shown)
Display Unit: µg/mL
MIC: 3.1
//
Molecule: CCC1OC(=O)C(C)C(=O)C(C)C(OC2OC(C)CC(N(C)C)C2O)C(C)(OCC=Cc2cnc3ccccc3c2)CC(C)C(=O)C(C)C2N(CC=Cc3cnc4ccccc4c3)C(=O)OC12C (stereo not shown)
Display Unit: µg/mL
MIC: 3.1
//
Molecule: CCC1OC(=O)C(C)C(=O)C(C)C(OC2OC(C)CC(N(C)C)C2OC(C)=O)C(C)(OCC=Cc2cnc3ccccc3c2)CC(C)C(=O)C(C)C2NC(=O)OC12C (stereo not shown)
Display Unit: µg/mL
MIC: 0.05
//
Molecule: C=CCO[C@@]1(C)C[C@@H](C)C(=O)[C@H](C)[C@H]2OC(=O)O[C@]2(C)[C@@H](CC)OC(=O)[C@H](C)C(=O)[C@H](C)[C@H]1O[C@@H]1O[C@H](C)C[C@H](N(C)C)[C@H]1O
Display Unit: µg/mL
MIC: 1.56
//
Molecule: CCC1OC(=O)C(C)C(=O)C(C)C(OC2OC(C)CC(N(C)C)C2O)C(C)(OCC=Cc2cccc3cccnc23)CC(C)C(=O)C(C)C2NC(=O)OC12C (stereo not shown)
Display Unit: µg/mL
MIC: 0.2
//
Molecule: CC[C@H]1OC(=O)[C@H](C)C(=O)[C@H](C)[C@@H](O[C@@H]2O[C@H](C)C[C@H](N(C)C)[C@H]2O)[C@@](C)(OCC=Cc2cnc3ccccc3c2)C[C@@H](C)C(=O)[C@H](C)[C@H]2N(C)C(=O)O[C@]12C
Display Unit: µg/mL
MIC: 0.1
//
Molecule: CC[C@H]1OC(=O)[C@H](C)C(=O)[C@H](C)[C@@H](O[C@@H]2O[C@H](C)C[C@H](N(C)C)[C@H]2O)[C@@](C)(OCC=NO)C[C@@H](C)C(=O)[C@H](C)[C@@H](O)[C@]1(C)O
Display Unit: µg/mL
MIC: 12.5
//
Molecule: C=CCOC1(C)CC(C)C(=O)C(C)C(O)C(C)(O)C(CC)OC(=O)C(C)C(=O)C(C)C1OC1OC(C)CC(N(C)C)C1O (stereo not shown)
Display Unit: µg/mL
MIC: 50
//
Molecule: CC[C@H]1OC(=O)[C@H](C)C(=O)[C@H](C)[C@@H](O[C@@H]2O[C@H](C)C[C@H](N(C)C)[C@H]2O)[C@@](C)(OCC=Cc2ccccc2)C[C@@H](C)C(=O)[C@H](C)[C@H]2OC(=O)O[C@@]21C
Display Unit: µg/mL
MIC: 0.1

====

tested on: up to 32 different microorganisms; experiment: in vitro antibacterial activity (MIC), agar dilution on Brain Heart Infusion (BHI) agar with Steers replicator; assay type: cell-based; conditions: Staphylococcus aureus CMX 553 (code FF); unit assumed

Compound: CC[C@H]1OC(=O)[C@H](C)C(=O)[C@H](C)[C@@H](O[C@@H]2O[C@H](C)C[C@H](N(C)C)[C@H]2O)[C@@](C)(OCC=Cc2cnc3ccccc3c2)C[C@@H](C)C(=O)[C@H](C)[C@H]2OC(=O)O[C@@]21C
Display Unit: µg/mL
MIC: 0.1
//
Compound: CC[C@H]1OC(=O)[C@H](C)C(=O)[C@H](C)[C@@H](O[C@@H]2O[C@H](C)C[C@H](N(C)C)[C@H]2O)[C@@](C)(OCC=Cc2ccc(Cl)cc2)C[C@@H](C)C(=O)[C@H](C)[C@H]2OC(=O)O[C@@]21C
Display Unit: µg/mL
MIC: 0.2

====

tested on: up to 32 different microorganisms; experiment: in vitro antibacterial activity (MIC), agar dilution on Brain Heart Infusion (BHI) agar with Steers replicator; format: cell-based; settings: organism code II; unit assumed

Molecule: CC[C@H]1OC(=O)[C@H](C)C(=O)[C@H](C)[C@@H](O[C@@H]2O[C@H](C)C[C@H](N(C)C)[C@H]2O)[C@@](C)(OCC#Cc2ccc3nc(C)ccc3c2)C[C@@H](C)C(=O)[C@H](C)[C@H]2NC(=O)O[C@@]21C
MIC: 0.05 µg/mL
//
Molecule: CC[C@H]1OC(=O)[C@H](C)C(=O)[C@H](C)[C@@H](O[C@@H]2O[C@H](C)C[C@H](N(C)C)[C@H]2O)[C@@](C)(OCC=NOCc2ccc3ccccc3c2)C[C@@H](C)C(=O)[C@H](C)[C@H]2NC(=O)O[C@@]21C
MIC: 0.05 µg/mL
//
Molecule: CCC1OC(=O)C(C)C(=O)C(C)C(OC2OC(C)CC(N(C)C)C2O)C(C)(OCc2cccc(I)c2)CC(C)C(=O)C(C)C2NC(=O)OC12C (stereo not drawn)
MIC: 0.39 µg/mL
